# assay method text: In vivo pharmacokinetics study, mouse
# condition set: male, BALB/c nude, plasma, IV 1.75 mg/kg
readout type: AUC(0-inf) (ng·h/mL)
The figure you give is taken to be in ng·h/mL; do not add the unit.

Name the recorded AUC(0-inf) for Cc1nnn(C)c1-c1cnc2c3c4cnn(C)c4ccc3n([C@H](c3ccccc3)C3CCOCC3)c2c1 .
993

----------
# assay method text: MTS assay of non-cancerous cells
# Type: cell-based, human
# condition set: human, HaCAT cells (immortalized human keratinocytes), 48h; 500 nM; read-out: Cell viability (Sup Fig.4b)
readout type: viability at 48 h, 0.5 µM
Answer format reminder: number followed by unit.

Name the recorded viability at 48 h, 0.5 µM for Cc1nnn(C)c1-c1cnc2c3c4cnn(C)c4ccc3n([C@H](c3ccccc3)C3CCOCC3)c2c1 .
86.7%

----------
# assay method text: In vivo pharmacokinetics study, mouse
# condition set: male, BALB/c nude, plasma, iv, 1.75 mg/kg, IV 1.75 mg/kg
readout type: half-life (min)
The figure you give is taken to be in min; do not add the unit.

Name the recorded half-life for Cc1nnn(C)c1-c1cnc2c3c4cnn(C)c4ccc3n([C@H](c3ccccc3)C3CCOCC3)c2c1 [NHWD-870] .
104

----------
# assay method text: MTS assay of non-cancerous cells
# Type: cell-based, human
# condition set: human, HaCAT cells (immortalized human keratinocytes), 72h; 1000 nM; read-out: Cell viability (Sup Fig.4b, 72h)
readout type: viability at 72 h, 1 µM
Answer format reminder: number followed by unit.

Name the recorded viability at 72 h, 1 µM for Cc1nnn(C)c1-c1cnc2c3c4cnn(C)c4ccc3n([C@H](c3ccccc3)C3CCOCC3)c2c1 .
78.4%

----------
# assay method text: In vivo pharmacokinetics study, mouse
# condition set: male, BALB/c nude, plasma, iv, 1.75 mg/kg, IV 1.75 mg/kg, 0.5 h, mean of 3 mice, read-out: Plasma concentration, Mean
readout type: concentration at 0.5 h (ng/mL)
The figure you give is taken to be in ng/mL; do not add the unit.

Name the recorded concentration at 0.5 h for Cc1nnn(C)c1-c1cnc2c3c4cnn(C)c4ccc3n([C@H](c3ccccc3)C3CCOCC3)c2c1 [NHWD-870] .
353

----------
# assay method text: In vivo pharmacokinetics study, mouse
# condition set: male, BALB/c nude, plasma, PO 5 mg/kg
readout type: MRT inf (h)
The figure you give is taken to be in h; do not add the unit.

Name the recorded MRT inf for Cc1nnn(C)c1-c1cnc2c3c4cnn(C)c4ccc3n([C@H](c3ccccc3)C3CCOCC3)c2c1 [NHWD-870] .
3.16

----------
# assay method text: In vivo pharmacokinetics study, rat
# Set-up: species or system SD rat
# condition set: male, SD, plasma, iv, 1 mg/kg, IV bolus, 2 h, individual animals, LLOQ 1.00 ng/mL, read-out: Plasma Conc.
readout type: concentration at 2 h (ng/mL)
The figure you give is taken to be in ng/mL; do not add the unit.

Name the recorded concentration at 2 h for Cc1nnn(C)c1-c1cnc2c3c4cnn(C)c4ccc3n([C@H](c3ccccc3)C3CCOCC3)c2c1 [NHWD-870] .
39

----------
# assay method text: In vivo pharmacokinetics study, rat
# Design: species or system SD rat
# condition set: male, SD, plasma, iv, 1 mg/kg, IV 1 mg/kg
# Method: 4–6 weeks old female BALB/c nude mice were used for most experiments, with the exception of 6–8 weeks old female C57BL/6 mice were used for B16F10 experiments, and 6–8 weeks old male BALB/c nude mice and SD rats were used for pharmacokinetic experiments. […] Mouse body weight and tumor sizes were measured every 3 days. […] Ascitic volume and tumor weight were measured by an electronic balance. […] Concentration of drugs in plasma, lung and tumor tissues were measured for the indicated time. […]
readout type: clearance (mL/min/kg)
The figure you give is taken to be in mL/min/kg; do not add the unit.

Name the recorded clearance for Cc1nnn(C)c1-c1cnc2c3c4cnn(C)c4ccc3n([C@H](c3ccccc3)C3CCOCC3)c2c1 [NHWD-870] .
50.4

----------
# assay method text: In vivo pharmacokinetics study, mouse
# condition set: male, BALB/c nude, plasma, po, 5 mg/kg, PO 5 mg/kg, read-out: F (%), oral bioavailability
readout type: bioavailability (%)
The figure you give is taken to be in %; do not add the unit.

Name the recorded bioavailability for Cc1nnn(C)c1-c1cnc2c3c4cnn(C)c4ccc3n([C@H](c3ccccc3)C3CCOCC3)c2c1 [NHWD-870] .
70.8

----------
# assay method text: in vitro
# condition set: Beagle, dog, microsomes, pH 7.4
readout type: microsomal CLint at 1 µM (µL/min/mg)
The figure you give is taken to be in µL/min/mg; do not add the unit.

Name the recorded microsomal CLint at 1 µM for Cc1nnn(C)c1-c1cnc2c3c4cnn(C)c4ccc3n([C@H](c3ccccc3)C3CCOCC3)c2c1 .
66.6
